Test system: TK-10 renal
Test: NCI tumour cell line growth inhibition, 48 h
For each record, write down the corresponding GI50.

> print(dat)
                           compound  reported
1  CCCCC/C=C/C(=O)CCc1ccc(O)c(OC)c1   11.6 µM

Below are 4 compounds. Give each one its GI50.
1. Cn1cc(C2=C(c3cn(C)c4cc(C(=O)O)ccc34)C(=O)NC2=O)c2ccccc21
2. Cc1ccc(NS(=O)(=O)c2ccc(-c3cnc(C4CC4)o3)cc2)cc1C
3. CC(C)(Oc1ccc(Cl)cc1)C(=O)NC1C2CC3CC1CC(NS(C)(=O)=O)(C3)C2 (stereo not given)
4. CC(C)(C)CC(C)(C)c1ccc(OCCSC(=N)N)cc1

[reply]
1. > 25 µM
2. 1.44 µM
3. > 100 µM
4. 1.76 µM

---

Tested on: 786-0 renal
Experiment: NCI tumour cell line growth inhibition, 48 h
For each record, write down the corresponding TGI.

Example results:
> print(dat)
                                   compound  system.under.test  reported
1  COC(=O)[C@](NC(=O)OCc1ccccc1)([C@@H](C)Sc1ccc(C)cc1)C(F)(F)F        786-0 renal  > 100 µM
2  COC(=O)[C@@H]1CCCN1C(=O)[C@@H]1CCCN1C(=O)[C@H](Cc1ccccc1)NC(=S)Nc1cc(C(F)(F)F)cc(C(F)(F)F)c1        786-0 renal  > 100 µM
3  O=S(=O)(O)c1ccc2c(N=Nc3cccc4ccccc34)c(O)c(S(=O)(=O)O)cc2c1        786-0 renal  > 100 µM

Field: next compound
[ask] Any idea what TGI was measured for Cn1cc2ccccc2c1-c1nc(F)nc(Oc2ccc3c(c2)CC[C@@H]2C3CC[C@@]3(C)C2CC[C@@H]3O)n1 (some centres undefined) ?
[reply] 26.4 µM

---

Test system: BT-549 breast
Assay: NCI tumour cell line growth inhibition, 48 h
For each record, write down the corresponding GI50.

Example results:
compound	GI50
CN(CCO)C1CCN(c2ccc(Nc3ncc4c5ccnc(F)c5n(C5CCCC5)c4n3)nc2)CC1	13.1 µM
C=CCOC1=CC(=O)c2ccccc2C1=O	11.1 µM

Below are 8 compounds. Give each one its GI50.
1. CSc1nn2c(-c3ccc4ccccc4c3)ccnc2c1C#N
2. CCCCSSC(=S)N(CC)CC
3. CCOC(=O)c1c2c(n(Cc3ccc(Cl)cc3Cl)c1C)-c1nc(Cc3ccccc3)[nH]c1C(=O)C2=O
4. CCN(CC)CCCN1C(=O)c2c(c(C)c3c(oc4ccc(O)cc43)c2C)C1=O
5. COc1ccc2c(c1)CC[C@@H]1[C@@H]2CC[C@]2(C)C(c3ccsc3)=C(/C=C/C(=O)c3ccccc3)C[C@@H]12
6. COc1ccc(/C=N/Nc2nc(N)nc(N3CCCC3)c2C#N)cc1
7. C=C(C)[C@@H]1C/C=C(\COC(=O)[C@H](OC(C)=O)C(NC(=O)c2ccccc2)c2ccccc2)CC[C@H]2O[C@]2(C)CC/C=C(\C)CC1 (stereo not given in full)
8. COC(=O)c1cc2cc(-c3ccc(OC)cc3)cnc2[nH]1

[reply]
1: 2.29 µM; 2: 26.1 µM; 3: 2.07 µM; 4: 1.75 µM; 5: > 100 µM; 6: 19.1 µM; 7: 12.9 µM; 8: 1.08 µM
